Sourced from patent US9284333B2

biological target: Human TASK-1 channels (Homo sapiens (Human), UniProt O14649); assay: Determination of the activity on the TASK-1 channel in Xenopus oocytes (two-microelectrode voltage clamp); settings: human TASK-1 expressed in Xenopus oocytes, room temperature; read-out: IC50 value for TASK-1 inhibition
Sequence (O14649 whole entry): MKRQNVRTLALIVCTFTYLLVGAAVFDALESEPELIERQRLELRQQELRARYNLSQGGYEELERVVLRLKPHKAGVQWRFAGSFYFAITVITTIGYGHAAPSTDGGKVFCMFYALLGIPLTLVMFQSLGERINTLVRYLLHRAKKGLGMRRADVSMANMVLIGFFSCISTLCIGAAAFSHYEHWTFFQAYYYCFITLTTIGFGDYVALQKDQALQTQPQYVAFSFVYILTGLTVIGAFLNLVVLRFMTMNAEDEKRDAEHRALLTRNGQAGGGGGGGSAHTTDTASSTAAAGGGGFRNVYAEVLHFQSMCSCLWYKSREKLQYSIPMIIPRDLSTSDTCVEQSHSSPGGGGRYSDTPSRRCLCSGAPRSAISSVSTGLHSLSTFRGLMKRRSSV
pIC50: −log10 of the molar value.
Observed Property: pIC50

Molecule	pIC50
CC[C@@H](NC(=O)c1cc(C(=O)N2CCC[C@@H]2C)n2c1COCC2)c1ccnc(C(F)(F)F)c1F [16bu]	6.68
CC[C@@H](NC(=O)c1cc(C(=O)N2CCC[C@@H]2C)n2c1COCC2)c1ccc(C(F)(F)F)cn1 [16bl]	6.09
CC[C@@H](NC(=O)c1cc(C(=O)N2CCCC2c2cc(C)no2)n2c1COCC2)c1ccccc1 (some centres unmarked) [16eq]	6.32
O=C(NC(c1ccccc1)c1ccccc1)c1cc(C(=O)N2CCCC2)n2c1COCC2 [16di]	5.92

I: CC[C@@H](NC(=O)c1cc(C(=O)N2CCC[C@@H]2C)n2c1COCC2)c1c(F)cc(C(F)(F)F)cc1F [16cl]
II: CC[C@@H](NC(=O)c1cc(C(=O)N2CCC[C@@H]2C)n2c1COCC2)c1ncc(C(F)(F)F)cn1 [16bh]
III: CC[C@@H](NC(=O)c1cc(C(=O)N(C)CCOC)n2c1CCCC2)c1ccccc1 [16mh]
IV: CC[C@@H](NC(=O)c1cc(C(=O)NCCc2ccccn2)n2c1COCC2)c1ccccc1 [16gm]
Your job: order these 4 records by pIC50, ascending. API: response body holds the labels in the requested order.
II, IV, III, I
(II: 6.04, IV: 6.31, III: 6.80, I: 7.30)

###

target: Human TASK-1 channels (Homo sapiens (Human), UniProt O14649); experiment: Determination of the activity on the TASK-1 channel in Xenopus oocytes (two-microelectrode voltage clamp); settings: human TASK-1 expressed in Xenopus oocytes, room temperature; read-out: IC50 value for TASK-1 inhibition
Observed Property: IC50 (nM)

Some entries whose results are on file:
Compound	IC50 / nM
CCC(NC(=O)c1cc(C(=O)N2CCC[C@@H]2C)n2c1COCC2)c1ccc(C(C)(F)F)cc1 (some centres unmarked) [16bc]	550
CC[C@@H](NC(=O)c1cc(C(=O)N2CCCC2)n2c1COCC2)c1ccc(F)cc1F [16de]	49
CC[C@@H](NC(=O)c1cc(C(=O)N2CCC[C@@H]2C)n2c1COCC2)c1cc(F)ccc1Cl [16w]	40
C[C@@H](NC(=O)c1cc(C(=O)N[C@H](C)c2ncccn2)c2n1CCOC2)c1ccc(F)cc1 (racemic) [16dy]	1500
CC[C@@H](NC(=O)c1cc(C(=O)N2CCCCC2)n2c1CCCC2)c1ccccc1 [16mi]	590
CC[C@@H](NC(=O)c1cc(C(=O)N2CCC[C@@H]2C)n2c1COCC2)c1ccccc1 [16a]	69
CC[C@@H](NC(=O)c1cc(C(=O)N[C@@H](CO)C(C)C)n2c1COCC2)c1ccccc1 [16jj]	4400
CC[C@@H](NC(=O)c1cc(C(=O)N[C@H](c2ccc(F)cc2)C2CC2)n2c1COCC2)c1ccccc1 [16ik]	710
CC[C@@H](NC(=O)c1cc(C(=O)N[C@H](CC)c2cccnc2OC)n2c1COCC2)c1ccccc1 [16ig]	240
CC[C@@H](NC(=O)c1cc(C(=O)NCc2ccc(F)cc2F)c2n1CCOC2)c1cnccn1 [16ns]	3100

P: CC[C@@H](NC(=O)c1cc(C(=O)NCc2nccs2)c2n1CCOC2)c1ccccc1 [16jt]
Q: CC[C@@H](NC(=O)c1cc(C(=O)N2CCN(c3ccccn3)C[C@@H]2C)n2c1COCC2)c1ccccc1 [16fs]
R: CC[C@@H](NC(=O)c1cc(C(=O)N[C@H](CC)c2cccc(OC)n2)n2c1COCC2)c1ccccc1 [16ic]
S: CC[C@@H](NC(=O)c1cc(C(=O)NC(C2CC2)C2CC2)n2c1COCC2)c1ccccc1 [16hb]
T: CC(C)[C@@H](NC(=O)c1cc(C(=O)N2CCCC2)c2n1CCOC2)c1ccc(F)cc1 [16lm]
Your job: order these 5 records by IC50, ascending. API: response body holds the labels in the requested order.
S, R, P, T, Q

1: CC[C@@H](NC(=O)c1cc(C(=O)N2CCC[C@@H]2C)n2c1COCC2)c1ccc(C(F)(F)F)cc1C(F)(F)F [16cp]
2: CC[C@@H](NC(=O)c1cc(C(=O)N2CCC[C@@H]2C)n2c1COCC2)c1cccc(C#N)n1 [16ah]
Identify the item whose IC50 is the smaller number: 1 or 2 Respond using the label that marks the chosen record.
1

###

biological target: Human TASK-1 channels (Homo sapiens (Human), UniProt O14649); assay: Determination of the activity on the TASK-1 channel in Xenopus oocytes (two-microelectrode voltage clamp); settings: human TASK-1 expressed in Xenopus oocytes, room temperature; read-out: IC50 value for TASK-1 inhibition
Observed Property: IC50 (nM)

Some entries whose results are on file:
Molecule	Measurement Unit	IC50
CC[C@@H](NC(=O)c1cc(C(=O)NCC2CC2)n2c1COCC2)c1ccccc1 [16gc]	nM	100
CC[C@@H](NC(=O)c1cc(C(=O)N(CC)Cc2nnn(C)n2)n2c1COCC2)c1ccccc1 [16rp]	nM	450

A: CC[C@@H](NC(=O)c1cc(C(=O)N2CC[C@@H](OC)C2)n2c1CCCC2)c1ccccc1 [16mg]
B: CC[C@@H](NC(=O)c1cc(C(=O)N[C@H](C)c2ccc(F)cc2)n2c1COCC2)c1ccccc1 [16gl]
C: CC[C@@H](NC(=O)c1cc(C(=O)N2CCC[C@@H]2c2ccc(OC)nc2)n2c1COCC2)c1ccccc1 [16fl]
D: CC[C@@H](NC(=O)c1cc(C(=O)N2CCCC2c2ncccn2)n2c1COCC2)c1ccccc1 (some centres unmarked) [16fz]
E: CC[C@@H](NC(=O)c1cc(C(=O)N2CCC[C@@H]2C)n2c1COCC2)c1ccc(F)c(Cl)c1 [16cg]
Rank by IC50 (largest to smallest). API: response body holds the labels in the requested order.
D, A, C, B, E
(D: 5100 nM, A: 840 nM, C: 240 nM, B: 42 nM, E: 15 nM)

1: CC[C@@H](NC(=O)c1c(Br)c(C(=O)N2CCC[C@@H]2C)n2c1COCC2)c1ccc(C(F)(F)F)nc1 [16ru]
2: CC[C@@H](NC(=O)c1cc(C(=O)N2CCCC2CN2CCOCC2)n2c1COCC2)c1ccccc1 (some centres unmarked) [16fr]
Hi team, can someone confirm which has the larger IC50: 1 or 2 ? Thanks. Respond using the label that marks the chosen record.
2
(2: 1300 nM, 1: 820 nM)

1: CC[C@@H](NC(=O)c1cc(C(=O)N2CCOC[C@@H]2C)c2n1CCOC2)c1ccccc1 [16kh]
2: CC[C@H](NC(=O)c1cc(C(=O)N[C@@H](c2ccc(F)cc2)C(C)C)c2n1CCOC2)c1ccccc1 [16jq]
3: CC[C@@H](NC(=O)c1cc(C(=O)NC(C)c2cccc(S(N)(=O)=O)c2)n2c1COCC2)c1ccccc1 (some centres unmarked) [16ip]
4: CC[C@@H](NC(=O)c1cc(C(=O)NC(C)COC)n2c1COCC2)c1ccccc1 (some centres unmarked) [16gg]
5: CC[C@@H](NC(=O)c1cc(C(=O)N2CCCC2)n2c1COCC2)c1ccccc1C(F)(F)F [16da]
Your job: order these 5 records by IC50, ascending. API: response body holds the labels in the requested order.
2, 4, 5, 1, 3

###

biological target: Human TASK-1 channels (Homo sapiens (Human)); experiment: Determination of the activity on the TASK-1 channel in Xenopus oocytes (two-microelectrode voltage clamp); settings: human TASK-1 expressed in Xenopus oocytes, room temperature; read-out: IC50 value for TASK-1 inhibition
Observed Property: IC50 (nM)

Some entries whose results are on file:
Molecule	Measurement Unit	IC50
CC[C@@H](NC(=O)c1cc(C(=O)N[C@H](C)c2ccc(F)cc2)n2c1COCC2)c1ncc(C(F)(F)F)cn1 [16ed]	nM	300
CC[C@@H](NC(=O)c1cc(C(=O)N(C)[C@@H](C)C(=O)OC(C)C)n2c1COCC2)c1ccccc1 [16ja]	nM	100
CC[C@@H](NC(=O)c1cc(C(=O)N2CCC[C@@H]2C)c2n1CCOC2)c1ccccc1C(F)(F)F [16ni]	nM	290

P: CC[C@@H](NC(=O)c1cc(C(=O)Nc2c(C)noc2C)n2c1CCCC2)c1ccccc1 [16nd]
Q: CC[C@@H](NC(=O)c1cc(C(=O)N2CCC[C@@H]2C)c2n1CCOC2)c1ccccc1Cl [16nh]
Identify the item whose IC50 is the smaller number: P or Q Respond using the label that marks the chosen record.
Q

I: CC[C@@H](NC(=O)c1cc(C(=O)N2CCC[C@H]2C(C)C)c2n1CCOC2)c1ccccc1 [16km]
II: CC[C@@H](NC(=O)c1cc(C(=O)N2CCCC2)n2c1COCC2)c1ccc(F)cc1Cl [16db]
III: CC[C@@H](NC(=O)c1cc(C(=O)N[C@H](C)c2ccc(F)cc2)n2c1COCC2)c1cnc(OC)cn1 [16dw]
Rank by IC50 (largest to smallest). API: response body holds the labels in the requested order.
I, II, III
(I: 390 nM, II: 90 nM, III: 48 nM)
